Attribution: patent US20160279215A1

tgt: HLA-A*02:01 (Homo sapiens, UniProt P04439, D140Y/D185E/D98H/E176V/E277Q/G131W/G231S/I119V/I121R/I166T/I218V/L300P/L318F/N151K/N90K/P208A/P217A/Q86G/Q94H/R138H/R169H/T345S)
Construct: made in house
assay.details: MHC binding assay: UV-ligand exchange with β2m ELISA (peptide exchange yield)
experimental.setup: binding to HLA-A*02:01 evaluated by peptide exchange yield (UV-ligand exchange, β2m ELISA)
measurement.type: Peptide exchange

Recorded results for 5 substances are shown here.
{"columns": ["substance", "Peptide exchange"],
 "data": [
  ["133 (FLDGRPLTL; listed as Homo sapiens) [compound 133]", "++ (≧20% = ++)"],
  ["88 (LLLPLELSLA; listed as Homo sapiens) [compound 88]", "+++ (≧50 = +++)"],
  ["51 (LDSEALLTL; listed as Homo sapiens) [compound 51]", "++ (≧20% = ++)"],
  ["260 (ALNESLVEC; listed as Homo sapiens) [compound 260]", "+++ (≧50 = +++)"],
  ["136 (LLWDAPAKC; listed as Homo sapiens) [compound 136]", "+++ (≧50 = +++)"]
]}

q: Need Peptide exchange, item 160 (TLQEWLTEV; listed as Homo sapiens) [compound 160]
a: +++ (≧50 = +++)

q: Quick one: 224 (LLFDWSGTGRADA; listed as Homo sapiens) [compound 224]
a: +++ (≧50 = +++)

q: Quick one: 38 (VLQQESNFL; listed as Homo sapiens) [compound 38]
a: ++ (≧20% = ++)

q: Quick one: 67 (FLIENLLAA; listed as Homo sapiens) [compound 67]
a: +++ (≧50 = +++)

q: Quick one: 139 (IILENIQSL; listed as Homo sapiens) [compound 139]
a: +++ (≧50 = +++)
